# System: human breast adenocarcinoma (MDA-MB-231 cell lines)
# procedure text: MTT cytotoxicity assay, MDA-MB-231
# Format: cell-based
# settings: MDA-MB-231, MTT, 0.78–100 µM, ± SD
measured parameter: IC50 (µM)
Give the number; µM is assumed, so skip it.

Assay human breast adenocarcinoma (MDA-MB-231 cell lines), sample O=c1cc(-c2ccccc2)c2ccc(OCCCI)cc2o1 , IC50 read: 39.5

###

# measured target: CDK-2/cyclin A2 (Homo sapiens, UniProt P24941)
# procedure text: CDK-2/cyclin A2 inhibitory assay (ELISA)
# settings: mean of three values; read-out: IC50 (Mean ± SEM), CDK-2/Cyclin A2
measured parameter: IC50 (nM)
Give the number; nM is assumed, so skip it.

>>> observed_result("Cn1c(COc2ccc3c(-c4ccccc4)cc(=O)oc3c2)nnc1SC1OCC(O)C(O)C1O (stereo not drawn)")
240
>>> observed_result("CCn1c(COc2ccc3c(-c4ccccc4)cc(=O)oc3c2)nnc1SC1OCC(O)C(O)C1O (stereo not drawn)")
150

Item: CC(=O)OC[C@H]1O[C@@H](OCc2cn(CCCOc3ccc4c(-c5ccccc5)cc(=O)oc4c3)nn2)[C@H](OC(C)=O)[C@@H](OC(C)=O)[C@H]1OC(C)=O | IC50: 211000

Values from paper PMC9458111
